# System tested: Potassium voltage-gated channel subfamily KQT member 1 (Homo sapiens)
# Experimental protocol: inhibitors of human KCNQ1 channel, primary screen, cell-based, thallium flux, high-throughput (AID 2642);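 further: channel opened by potassium depolarization with thallium stimulus after 20 min compound exposure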
# Details: CHO-K1 KCNQ1, FluxOR thallium flux fluorescence, at 10 µM
Hit rate of the full screen: of about 310,000 compounds, about 3,900 (1.3%) were called active.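 How the source made its calls: active means compounds whose thallium flux B-score, printed positive for inhibition, exceeds three library SD while starting fluorescence stays within three; inactive means the rest.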 The entries come from a sample that favours actives as a whole.
Choose one outcome from this list and give only that: true (1) for active, false (0) for inactive

# example entries with known answers
Compound: CCC(=O)N1CCC(C(N)=O)(N2CCCCC2)CC1
System tested: Potassium voltage-gated channel subfamily KQT member 1 (Homo sapiens)
Group label: false (0)
//
Compound: Cc1cc(/C=C2/C(=N)N3C(=NC2=O)SN=C3S(C)(=O)=O)c(C)n1-c1ccccc1
System tested: Potassium voltage-gated channel subfamily KQT member 1 (Homo sapiens)
Group label: false (0)
//
Compound: Cc1ccc(C(=O)c2c(NC(=O)c3ccccc3)sc(C)c2C)cc1
System tested: Potassium voltage-gated channel subfamily KQT member 1 (Homo sapiens)
Group label: true (1)
//
Compound: CN(C)/C=C(/C(=O)c1ccc(F)cc1)S(=O)(=O)c1ccc(F)cc1
System tested: Potassium voltage-gated channel subfamily KQT member 1 (Homo sapiens)
Group label: false (0)
//
Compound: CC1CCC(NC(=O)C2c3ccccc3C(=O)N2Cc2ccc3c(c2)OCO3)CC1 (stereo not drawn)
System tested: Potassium voltage-gated channel subfamily KQT member 1 (Homo sapiens)
Group label: false (0)

Here's the next entry for you.
Lookup: Outcome logged for `N#Cc1c(NC(=O)CCCN2C(=O)c3ccccc3C2=O)oc(-c2ccccc2)c1-c1ccccc1` in this assay:
Found: true (1)

###

# System tested: Potassium voltage-gated channel subfamily KQT member 1 (Homo sapiens) (UniProt P51787)
# Sequence (P51787 whole entry, looked up): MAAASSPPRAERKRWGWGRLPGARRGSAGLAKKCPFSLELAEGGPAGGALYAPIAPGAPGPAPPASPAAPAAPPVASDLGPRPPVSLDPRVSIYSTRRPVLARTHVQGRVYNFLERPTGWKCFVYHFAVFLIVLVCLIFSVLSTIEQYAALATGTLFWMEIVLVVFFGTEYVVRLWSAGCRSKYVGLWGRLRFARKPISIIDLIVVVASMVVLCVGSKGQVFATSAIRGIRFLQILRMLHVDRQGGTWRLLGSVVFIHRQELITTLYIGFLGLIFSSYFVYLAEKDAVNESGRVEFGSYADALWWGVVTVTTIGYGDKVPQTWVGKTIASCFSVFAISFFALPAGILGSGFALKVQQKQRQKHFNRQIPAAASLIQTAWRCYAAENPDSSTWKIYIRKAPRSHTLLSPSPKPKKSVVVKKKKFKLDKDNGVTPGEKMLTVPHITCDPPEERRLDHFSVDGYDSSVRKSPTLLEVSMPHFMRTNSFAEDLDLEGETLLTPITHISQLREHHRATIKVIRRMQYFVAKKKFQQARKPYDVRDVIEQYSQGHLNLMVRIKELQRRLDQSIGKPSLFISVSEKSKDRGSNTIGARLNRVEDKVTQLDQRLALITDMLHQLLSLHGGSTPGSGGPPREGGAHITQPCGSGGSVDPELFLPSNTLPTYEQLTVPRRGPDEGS
# Experimental protocol: inhibitors of human KCNQ1 channel, primary screen, cell-based, thallium flux, high-throughput (AID 2642)
# Details: CHO-K1 KCNQ1, FluxOR thallium flux fluorescence, at 10 µM
In all, about 310,000 compounds went through this assay and about 3,900 (1.3%) were called active.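 How the source made its calls: active means compounds whose thallium flux B-score, printed positive for inhibition, exceeds three library SD while starting fluorescence stays within three; inactive means the rest.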 What follows is part of a selection rich in actives, with near analogues and random picks from the rest.
Choose one outcome from this list and give only that: True for active, False for inactive

# example entries with known answers
Molecule: O=C(CCC(=O)c1cccs1)Nc1nc2ccccc2s1
System tested: Potassium voltage-gated channel subfamily KQT member 1 (Homo sapiens) (UniProt P51787)
Group label: False

Molecule: Cc1cccc(NC(=S)Nc2ccc3cn[nH]c3c2)c1
System tested: Potassium voltage-gated channel subfamily KQT member 1 (Homo sapiens) (UniProt P51787)
Group label: False

Molecule: COc1ccc(C)cc1NC(=O)NCCCCc1ccccc1
System tested: Potassium voltage-gated channel subfamily KQT member 1 (Homo sapiens) (UniProt P51787)
Group label: False

Molecule: COc1ccc(C)cc1NC(=O)Nc1ccccc1SC
System tested: Potassium voltage-gated channel subfamily KQT member 1 (Homo sapiens) (UniProt P51787)
Group label: False

Molecule: Cc1ccccc1NC(=O)Nc1ccccc1N1CCCCC1
System tested: Potassium voltage-gated channel subfamily KQT member 1 (Homo sapiens) (UniProt P51787)
Group label: False

Molecule: COc1cccc(OCCCN2CCCCCC2)c1
System tested: Potassium voltage-gated channel subfamily KQT member 1 (Homo sapiens) (UniProt P51787)
Group label: False

Molecule: COC(=O)c1ccc(NC(=O)c2ccccc2NS(=O)(=O)c2ccccc2)cc1
System tested: Potassium voltage-gated channel subfamily KQT member 1 (Homo sapiens) (UniProt P51787)
Group label: False

Molecule: CC(Oc1ccc(F)cc1)C(=O)Nc1cc(S(=O)(=O)N2CCOCC2)ccc1N1CCN(C)CC1 (stereo not drawn)
System tested: Potassium voltage-gated channel subfamily KQT member 1 (Homo sapiens) (UniProt P51787)
Group label: False

Molecule: COc1ccc(C)cc1NC(=O)C(Sc1ccccc1)c1ccccc1 (stereo not drawn)
System tested: Potassium voltage-gated channel subfamily KQT member 1 (Homo sapiens) (UniProt P51787)
Group label: True

Molecule: Cc1ccc(-c2csc(NC(=O)C3=COCCO3)n2)cc1C
System tested: Potassium voltage-gated channel subfamily KQT member 1 (Homo sapiens) (UniProt P51787)
Group label: True

Lookup: Outcome logged for `COc1cc2c3c(c1)/C(=C1/SC(=S)NC1=O)C(=O)N3C(C)(C)C=C2C` in this assay:
Found: False

Lookup: Outcome logged for CCCC(C)C(=O)Nc1ccc(NC(C)=O)cc1 (stereo not drawn) in this assay:
Found: False

Lookup: Outcome logged for `O=C(CCC1CCCCC1)Nc1cc(C(F)(F)F)ccc1N1CCOCC1` in this assay:
Found: False

###

# System tested: Potassium voltage-gated channel subfamily KQT member 1 (Homo sapiens)
# Experimental protocol: inhibitors of human KCNQ1 channel, primary screen, cell-based, thallium flux, high-throughput (AID 2642);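 further: channel opened by potassium depolarization with thallium stimulus after 20 min compound exposure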
# Details: CHO-K1 KCNQ1, FluxOR thallium flux fluorescence, at 10 µM; stronger effect = higher value
In all, about 310,000 compounds went through this assay and about 3,900 (1.3%) were called active. The list comes from a sample in which actives are over-represented; it also holds close analogues and randomly drawn compounds.
Reported metric: B-score

Here are 5 molecules together with their reported answers.
Smiles notation: Cc1ccc2nc(-c3ccncc3)cc(C(=O)Nc3ccc(OC(F)F)cc3)c2c1
B-score: inactive

Smiles notation: CCNS(=O)(=O)c1ccc(NC(=O)Nc2cccc(OC)c2)cc1
B-score: inactive

Smiles notation: COC(=O)CNS(=O)(=O)c1ccc(OC)cc1
B-score: inactive

Smiles notation: O=C(Nc1ccccc1)Nc1ccccc1C(=O)NCc1ccco1
B-score: inactive

Smiles notation: Cc1ccccc1NC(=O)NCc1ccco1
B-score: inactive

// moving on: another record for B-score
Lookup: Entry under review: `Cc1cccc(Nc2ccccc2C(=O)NCc2ccco2)c1C` . Reported B-score?
Found: 9 (active)

###

# System tested: Potassium voltage-gated channel subfamily KQT member 1 (Homo sapiens)
# Experimental protocol: inhibitors of human KCNQ1 channel, primary screen, cell-based, thallium flux, high-throughput (AID 2642);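 further: channel opened by potassium depolarization with thallium stimulus after 20 min compound exposure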
# Details: CHO-K1 KCNQ1, FluxOR thallium flux fluorescence, at 10 µM
The whole screen tested about 310,000 compounds, of which about 3,900 (1.3%) were called active.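 The calls were made as follows: active = compounds whose thallium flux B-score, printed positive for inhibition, exceeds three library SD while starting fluorescence stays within three; inactive = the rest.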 Shown is part of a subset that was picked to be rich in actives.
Choose one outcome from this list and give only that: class 1 = active, class 0 = inactive

# example entries with known answers
Compound: COc1ccc(-c2ccc(Nc3ccc(S(=O)(=O)N4CCCC4)cc3)nn2)cc1OC
Group label: class 0
--
Compound: CCOc1ccc(NC(=O)COc2ccc(C(=O)N3CCC(C(N)=O)CC3)cc2OC)cc1
Group label: class 0
--
Compound: NC(=O)C1CCN(C(=O)c2cn(-c3ccccc3)nc2-c2cccnc2)CC1
Group label: class 0

Lookup: Outcome logged for `c1ccc(-c2nnc(N3CCOCC3)c3ccccc23)cc1` in this assay:
Found: class 0

Lookup: Outcome logged for `S=C(Nc1cccc(Cl)c1)Nc1ccc2cn[nH]c2c1` in this assay:
Found: class 0

Lookup: Outcome logged for `COc1ccc(CCNCc2c(-c3ccccc3)n(C)c3ccccc23)cc1` in this assay:
Found: class 1

Lookup: Outcome logged for `CCCCN(C)CCCNC(=O)c1cc(-c2cccs2)nc2ccccc12` in this assay:
Found: class 0

###

# System tested: Potassium voltage-gated channel subfamily KQT member 1 (Homo sapiens) (UniProt P51787)
# Experimental protocol: inhibitors of human KCNQ1 channel, primary screen, cell-based, thallium flux, high-throughput (AID 2642);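 further: channel opened by potassium depolarization with thallium stimulus after 20 min compound exposure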
# Details: CHO-K1 KCNQ1, FluxOR thallium flux fluorescence, at 10 µM
About 3,900 (1.3%) of roughly 310,000 compounds were called active.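 Rule for the calls: active = compounds whose thallium flux B-score, printed positive for inhibition, exceeds three library SD while starting fluorescence stays within three; inactive = the rest.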 Many of the other results were omitted from the sample, so actives are more common in it than they were.
Choose one outcome from this list and give only that: Y for active, N for inactive

# example entries with known answers
Compound: COC(=O)c1cccc(N(C(=O)CNC(=O)c2cccs2)C(C(=O)NCC2CCCO2)c2ccc(OC)c(OC)c2)c1 (stereo not given)
Group label: N
//
Compound: Cc1ccc(Cl)cc1NC(=O)COC(=O)CC(C)(C)C
Group label: N
//
Compound: Cc1ccc(S(=O)(=O)N2CCN(CC(=O)N/N=C/c3ccc(Br)s3)CC2)cc1
Group label: N
//
Compound: COc1ccccc1CC(=O)NCCc1c[nH]c2ccccc12
Group label: N

Lookup: Outcome logged for `COc1ccc(Nc2ncnc3sc(-c4ccccc4)cc23)c(OC)c1` in this assay:
Found: Y

Lookup: Outcome logged for CCCC1CCC(=NNC(=S)NCCc2ccccc2)CC1 (stereo not given) in this assay:
Found: Y

Lookup: Outcome logged for `CN1CCN(CC(=O)Nc2cccc([N+](=O)[O-])c2)CC1` in this assay:
Found: N

Lookup: Outcome logged for `Cc1c(Cl)cccc1NC(=O)[C@@]1(CC(=O)O)CC(/C=C/c2ccccc2)=NO1` in this assay:
Found: N

Lookup: Outcome logged for Cc1nn(CC(=O)NCC2CCCO2)c(=O)c2cc3ccccc3n12 (stereo not given) in this assay:
Found: N

Lookup: Outcome logged for `O=C(Nc1nnc(-c2ccccc2)o1)c1cc(-c2cccs2)nc2ccccc12` in this assay:
Found: N

Lookup: Outcome logged for `Cn1nc(-c2ccccc2)c(CSc2cccc(Cl)c2)c1Cl` in this assay:
Found: Y

Lookup: Outcome logged for `CCOc1ccc2ccccc2c1/C=N/NC(=O)c1c(C)cc(C)[nH]c1=O` in this assay:
Found: N

Lookup: Outcome logged for `COc1ccccc1N1CCN(c2ccc([N+](=O)[O-])nc2)CC1` in this assay:
Found: N

Lookup: Outcome logged for Cc1cc(C)cc(N(CC(=O)NCC2CCCO2)S(=O)(=O)c2c(C)noc2C)c1 (stereo not given) in this assay:
Found: N

Lookup: Outcome logged for `COc1cccc2c(C)c(C(=O)O)[nH]c12` in this assay:
Found: N

Lookup: Outcome logged for `CCCc1cc(=O)[nH]c(SCC(=O)Nc2sc3c(c2C#N)CCCC3)n1` in this assay:
Found: N

Lookup: Outcome logged for `N#Cc1c(-c2ccccc2)nc(SCc2ccc([N+](=O)[O-])cc2)[nH]c1=O` in this assay:
Found: N

Lookup: Outcome logged for `Cc1ccccc1Cn1c2ccccc2c2cnn(CC(=O)NCc3ccco3)c(=O)c21` in this assay:
Found: N

Lookup: Outcome logged for CC1=C(C)CC(C(=O)NNC(=O)c2ccccc2O)C(C(=O)O)C1 (stereo not given) in this assay:
Found: N

Lookup: Outcome logged for N/C(=N\c1nc2ccccc2o1)NC(=O)C(Cc1ccccc1)N1C(=O)c2ccccc2C1=O (stereo not given) in this assay:
Found: N

Lookup: Outcome logged for `Cc1cc(Br)ccc1NC(=O)c1sc2ncn(CC(=O)N3CCN(c4ccccn4)CC3)c(=O)c2c1C` in this assay:
Found: N

Lookup: Outcome logged for `Cn1nc(-c2ccccc2)c(CO)c1Sc1ccccc1` in this assay:
Found: N

Lookup: Outcome logged for `CN1CCN(NC(=O)Nc2ccc(Br)cc2)CC1` in this assay:
Found: N

Lookup: Outcome logged for `Cc1cc(C(=O)CCC(=O)NNC(=O)c2ccccc2O)c(C)s1` in this assay:
Found: Y

Lookup: Outcome logged for S=C(NCCc1ccccc1)NCC1CCCO1 (stereo not given) in this assay:
Found: N

Lookup: Outcome logged for `CN(Cc1ccc(F)cc1Cl)S(=O)(=O)c1cccs1` in this assay:
Found: N

Lookup: Outcome logged for CC(NCC(=O)Nc1cc(Cl)cc(Cl)c1)c1ccccc1 (stereo not given) in this assay:
Found: N
